// reported pIC50 per item
- assay system: UniProt P11597
- Sequence (P11597 whole entry): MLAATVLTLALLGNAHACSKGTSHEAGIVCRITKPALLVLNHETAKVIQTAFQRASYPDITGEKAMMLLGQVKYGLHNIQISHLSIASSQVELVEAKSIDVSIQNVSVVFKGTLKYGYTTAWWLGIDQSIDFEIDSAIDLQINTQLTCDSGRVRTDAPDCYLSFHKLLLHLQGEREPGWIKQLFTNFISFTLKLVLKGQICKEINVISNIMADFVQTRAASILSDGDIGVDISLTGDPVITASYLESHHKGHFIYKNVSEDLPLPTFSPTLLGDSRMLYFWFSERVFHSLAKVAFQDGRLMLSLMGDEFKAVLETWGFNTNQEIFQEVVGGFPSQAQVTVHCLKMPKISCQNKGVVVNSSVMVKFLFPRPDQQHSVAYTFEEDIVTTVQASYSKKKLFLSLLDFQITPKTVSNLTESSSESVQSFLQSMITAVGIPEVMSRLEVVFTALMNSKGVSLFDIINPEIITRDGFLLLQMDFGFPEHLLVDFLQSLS
- run description: Compound was tested for CETP inhibition by a precipitation method to separate lipoproteins after incubation of radiolabeled HDL with LDL and CETP.
pIC50: −log10 of the molar value.
measure name: pIC50

COc1ccc(O)c(O)c1/C=C1\[C@@H](C)CCC2C(C)(C)CCC[C@]12C (some centres not stated)	6.22
COc1ccc(O)c(O)c1CC1=C(C)CCC2C(C)(C)CCC[C@]12C (some centres not stated)	6.00
